Where do these numbers come from? They come from patent US10894788B2.

- assayed_system: CDK12 wt/CycK (Homo sapiens (Human))
- assay_comment: Radiometric protein kinase assay (33PanQinase Activity Assay), Assay Condition A (thiol containing conditions)
- Format: biochemical
- measurement_setup: thiol containing conditions (1.2 mM DTT), ATP 0.3 μM; read-out: CDK12 IC50 Condition A
pIC50: −log10 of the molar value.
Property: pIC50; scope: individual compounds

[
  {
    "smiles_str": "C=CC(=O)N1CCc2ccc(C(=O)N3CC[C@@H](Nc4ncc(Cl)cn4)C3)cc21",
    "pIC50": "6.00 to 7.00"
  },
  {
    "smiles_str": "C=CC(=O)N1CCc2cc(C(=O)N3CC[C@@H](Nc4ncc(Cl)cn4)C3)ccc2C1",
    "pIC50": "5.00 to 6.00"
  },
  {
    "smiles_str": "C#Cc1cnc(N[C@@H]2CCN(C(=O)c3ccc(NC(=O)C=C)cc3)C2)nc1OC",
    "pIC50": "> 7.00"
  },
  {
    "smiles_str": "C=CC(=O)Nc1ccc(C(=O)N2CC[C@@H](Nc3ncc(C(F)(F)F)c(N)n3)C2)cc1",
    "pIC50": "> 7.00"
  },
  {
    "smiles_str": "C/C=C/C(=O)Nc1ccc(C(=O)N2CC[C@@H](Nc3ncc(Cl)c(OC)n3)C2)nc1",
    "pIC50": "6.00 to 7.00"
  },
  {
    "smiles_str": "C=CC(=O)Nc1ccc(C(=O)N2CC[C@@H](Nc3ncc(C#N)cn3)C2)cc1",
    "pIC50": "6.00 to 7.00"
  },
  {
    "smiles_str": "C=CC(=O)Nc1cccc(C(=O)N2CC[C@@H](Nc3ncc(Cl)c(OC)n3)C2)c1",
    "pIC50": "6.00 to 7.00"
  },
  {
    "smiles_str": "C#CC(=O)Nc1ccc(C(=O)N2CC[C@@H](Nc3ncc(Cl)cn3)C2)cc1",
    "pIC50": "> 7.00"
  }
]

----------
- assayed_system: CDK12 (Homo sapiens (Human), UniProt Q9NYV4)
- assay_comment: Radiometric protein kinase assay (33PanQinase Activity Assay), Assay Condition B (thiol-free conditions)
- Format: biochemical
- measurement_setup: thiol-free conditions (1 mM TCEP, glutathione removed)
Property: IC50; scope: individual compounds

[
  {
    "compound": "C=CC(=O)Nc1ccc(C(=O)N2CC[C@@H](Nc3ncc(C4CC4)cn3)C2)cc1",
    "IC50": "< 0.1 µM"
  },
  {
    "compound": "C=CC(=O)Nc1ccc(C(=O)N2CC[C@@H](Nc3nccc(Oc4cnn(C)c4)n3)C2)cc1 (stereo in doubt)",
    "IC50": "1 to 10 µM"
  },
  {
    "compound": "C=CS(=O)(=O)Nc1ccc(C(=O)N2CC[C@@H](Nc3ncc(Cl)cn3)C2)cc1",
    "IC50": "0.1 to 1 µM"
  },
  {
    "compound": "C=CC(=O)N1CCOc2cc(C(=O)N3CC[C@@H](Nc4ncc(Cl)c(OC)n4)C3)ccc21",
    "IC50": "0.1 to 1 µM"
  }
]

----------
- assayed_system: CDK12 wt/CycK (Homo sapiens (Human))
- assay_comment: Radiometric protein kinase assay (33PanQinase Activity Assay), Assay Condition A (thiol containing conditions)
- Type: biochemical
- measurement_setup: thiol containing conditions (1.2 mM DTT), ATP 0.3 μM; read-out: CDK12 IC50 Condition A

[
  {
    "molecule": "C=CC(=O)Nc1ccc(C(=O)N2CC[C@@H](Nc3ncc(Cl)c(C(F)(F)F)n3)C2)cc1",
    "IC50": "< 100 nM"
  },
  {
    "molecule": "C=CC(=O)Nc1ccc(C(=O)N2CC[C@@H](Nc3ncc(Cl)c(OC)n3)C2)cc1",
    "IC50": "< 100 nM"
  },
  {
    "molecule": "C=CC(=O)Nc1ccc(C(=O)N2CC[C@@H](Nc3ncc(Br)cn3)C2)cc1O[C@@H]1CCN(C)C1",
    "IC50": "< 100 nM"
  },
  {
    "molecule": "C=CC(=O)Nc1ccc(C(=O)N2CC[C@@H](Nc3ncc(Br)cn3)C2)cc1OCCN1CCC(F)(F)CC1",
    "IC50": "100 to 1000 nM"
  },
  {
    "molecule": "C=CC(=O)Nc1ccc(C(=O)N2CC[C@@H](Nc3ncc(Cl)c(OCC)n3)C2)nc1",
    "IC50": "< 100 nM"
  },
  {
    "molecule": "C=CC(=O)Nc1ccc(C(=O)N2CC[C@@H](Nc3ncc(Br)cn3)C2)cc1N1CCC(N(C)C)CC1",
    "IC50": "100 to 1000 nM"
  },
  {
    "molecule": "[2H]c1nc(N[C@@H]2CCN(C(=O)c3ccc(NC(=O)C=C)cc3)C2)nc(OC([2H])([2H])[2H])c1Cl",
    "IC50": "< 100 nM"
  },
  {
    "molecule": "COc1nc(N[C@@H]2CCN(C(=O)c3ccc(NC(=O)C4CO4)cc3)C2)ncc1Cl (stereo partly drawn)",
    "IC50": "1000 to 10000 nM"
  },
  {
    "molecule": "C/C=C/C(=O)Nc1ccc(C(=O)N2CC[C@@H](Nc3ncc(Cl)cn3)C2)cc1",
    "IC50": "100 to 1000 nM"
  },
  {
    "molecule": "C=CC(=O)Nc1ccc(C(=O)N2CC[C@@H](Nc3ncc(Cl)cn3)C2)cc1N1CCC(N(C)C)C1 (stereo partly drawn)",
    "IC50": "100 to 1000 nM"
  },
  {
    "molecule": "COc1nc(N[C@@H]2CCN(C(=O)c3ccc(NC(=O)/C=C/CN4CCCC(F)(F)C4)cn3)C2)ncc1Cl",
    "IC50": "100 to 1000 nM"
  },
  {
    "molecule": "C=CC(=O)Nc1nc(C(=O)N2CCC[C@@H](Nc3ncc(Cl)c(OC)n3)C2)cs1",
    "IC50": "100 to 1000 nM"
  },
  {
    "molecule": "C=CC(=O)Nc1cc(C(=O)N2CC[C@@H](Nc3ncc(Cl)cn3)C2)nn1C",
    "IC50": "1000 to 10000 nM"
  },
  {
    "molecule": "C=CC(=O)Nc1ccc(C(=O)N2CC[C@@H](Nc3ncc(Cl)c(C)n3)C2)cc1",
    "IC50": "100 to 1000 nM"
  },
  {
    "molecule": "COc1nc(N[C@@H]2CCN(C(=O)c3ccc(NC(=O)/C=C/CN4CC[C@H](F)C4)cc3)C2)ncc1Cl",
    "IC50": "< 100 nM"
  }
]

----------
# IC50 measurements, system: CDK12 (Homo sapiens (Human), UniProt Q9NYV4)

[
  {
    "compound": "CCC(=O)Nc1ccc(C(=O)N2CCC[C@@H](Nc3nccc(N4CCOCC4)n3)C2)cc1",
    "IC50": "30000 to 100000 nM"
  },
  {
    "compound": "C=CC(=O)Nc1ccc(C(=O)N2CC[C@@H](Nc3ncc(Cl)c(OC)n3)C2)cc1C",
    "IC50": "< 100 nM"
  },
  {
    "compound": "C=CC(=O)N1CCOc2cc(C(=O)N3CC[C@@H](Nc4ncc(Cl)cn4)C3)ccc21",
    "IC50": "100 to 1000 nM"
  },
  {
    "compound": "C=CC(=O)Nc1ccc(C(=O)N2CC[C@@H](Nc3ncc(Cl)c(OC4CC4)n3)C2)cc1 [Example 21]",
    "IC50": "< 100 nM"
  },
  {
    "compound": "CCC(=O)Nc1ccc(C(=O)N2CC[C@@H](Nc3ncc(Br)cn3)C2)cc1",
    "IC50": "100 to 1000 nM"
  },
  {
    "compound": "C=CC(=O)Nc1ccc(C(=O)N2CC[C@@H](Nc3ncc(Cl)c(OC)n3)C2)cc1-c1cnn(C)c1 [Example 82]",
    "IC50": "100 to 1000 nM"
  },
  {
    "compound": "C=CC(=O)Nc1ccc(C(=O)N2CC[C@@H](Nc3ncc(Cl)c(C)n3)C2)cc1C",
    "IC50": "100 to 1000 nM"
  },
  {
    "compound": "CCC(=O)Nc1ccc(C(=O)N2CC[C@@H](Nc3ncc(C)c(OC4CC4)n3)C2)cc1",
    "IC50": "1000 to 10000 nM"
  }
]

----------
- assayed_system: CDK12 wt/CycK (Homo sapiens (Human), UniProt Q9NYV4)
- Sequence (Q9NYV4 whole entry): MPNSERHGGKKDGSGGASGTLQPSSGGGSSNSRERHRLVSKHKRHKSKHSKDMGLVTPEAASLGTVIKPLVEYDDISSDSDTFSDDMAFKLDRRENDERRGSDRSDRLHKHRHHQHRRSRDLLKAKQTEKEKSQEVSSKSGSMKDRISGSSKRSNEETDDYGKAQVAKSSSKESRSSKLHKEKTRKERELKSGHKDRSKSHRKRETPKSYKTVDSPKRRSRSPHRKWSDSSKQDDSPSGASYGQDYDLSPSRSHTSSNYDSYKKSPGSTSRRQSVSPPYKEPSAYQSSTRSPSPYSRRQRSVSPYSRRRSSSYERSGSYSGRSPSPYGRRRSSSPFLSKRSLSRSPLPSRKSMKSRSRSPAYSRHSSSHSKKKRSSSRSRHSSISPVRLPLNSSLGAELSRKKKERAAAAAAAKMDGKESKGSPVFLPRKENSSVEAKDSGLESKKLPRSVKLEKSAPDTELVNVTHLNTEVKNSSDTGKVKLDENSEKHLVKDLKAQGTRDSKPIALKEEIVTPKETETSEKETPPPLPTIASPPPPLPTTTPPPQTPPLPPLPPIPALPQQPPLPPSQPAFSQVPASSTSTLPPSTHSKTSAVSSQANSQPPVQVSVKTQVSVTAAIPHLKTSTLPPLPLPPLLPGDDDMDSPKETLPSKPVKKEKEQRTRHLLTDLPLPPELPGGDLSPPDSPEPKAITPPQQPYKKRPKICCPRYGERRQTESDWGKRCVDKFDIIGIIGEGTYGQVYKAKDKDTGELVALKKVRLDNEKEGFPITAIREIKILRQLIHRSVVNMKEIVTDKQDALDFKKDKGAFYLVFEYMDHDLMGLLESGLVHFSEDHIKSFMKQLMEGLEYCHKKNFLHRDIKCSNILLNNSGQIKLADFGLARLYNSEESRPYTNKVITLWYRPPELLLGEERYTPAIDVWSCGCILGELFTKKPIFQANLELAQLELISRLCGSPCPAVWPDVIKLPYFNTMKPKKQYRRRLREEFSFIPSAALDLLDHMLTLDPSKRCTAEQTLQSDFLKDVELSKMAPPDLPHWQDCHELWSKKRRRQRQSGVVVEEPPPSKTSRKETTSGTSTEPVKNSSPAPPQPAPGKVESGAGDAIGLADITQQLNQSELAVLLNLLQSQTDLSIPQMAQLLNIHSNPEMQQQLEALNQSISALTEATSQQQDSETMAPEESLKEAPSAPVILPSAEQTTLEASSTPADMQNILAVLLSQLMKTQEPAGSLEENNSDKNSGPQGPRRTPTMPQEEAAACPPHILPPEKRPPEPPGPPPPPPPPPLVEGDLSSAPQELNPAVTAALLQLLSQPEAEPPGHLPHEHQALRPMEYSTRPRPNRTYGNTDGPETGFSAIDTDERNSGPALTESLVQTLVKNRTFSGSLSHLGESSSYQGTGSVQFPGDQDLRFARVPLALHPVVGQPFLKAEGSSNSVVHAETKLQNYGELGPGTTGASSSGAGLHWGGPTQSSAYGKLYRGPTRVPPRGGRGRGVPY
- Sequence (O75909 whole entry partner): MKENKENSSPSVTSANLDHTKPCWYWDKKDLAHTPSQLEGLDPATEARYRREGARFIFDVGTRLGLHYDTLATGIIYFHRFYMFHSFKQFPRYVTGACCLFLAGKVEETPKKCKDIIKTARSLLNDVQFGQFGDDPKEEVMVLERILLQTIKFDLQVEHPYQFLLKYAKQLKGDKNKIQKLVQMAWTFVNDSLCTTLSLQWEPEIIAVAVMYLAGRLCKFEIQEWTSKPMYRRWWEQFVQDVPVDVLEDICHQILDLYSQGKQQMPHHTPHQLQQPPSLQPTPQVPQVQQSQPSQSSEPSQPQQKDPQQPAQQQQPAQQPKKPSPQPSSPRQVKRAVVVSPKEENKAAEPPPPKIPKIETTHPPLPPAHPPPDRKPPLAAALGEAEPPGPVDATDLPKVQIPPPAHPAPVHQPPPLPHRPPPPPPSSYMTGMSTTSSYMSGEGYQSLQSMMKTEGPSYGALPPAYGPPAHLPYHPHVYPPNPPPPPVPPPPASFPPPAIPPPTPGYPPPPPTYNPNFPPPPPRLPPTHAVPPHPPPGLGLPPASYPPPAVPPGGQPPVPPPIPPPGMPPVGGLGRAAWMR
- assay_comment: Radiometric protein kinase assay (33PanQinase Activity Assay), Assay Condition A (thiol containing conditions)
- Assay type: biochemical
- measurement_setup: thiol containing conditions (1.2 mM DTT), ATP 0.3 μM; read-out: CDK12 IC50 Condition A

[
  {
    "smiles_str": "C=CC(=O)Nc1nc(C(=O)N2CC[C@@H](Nc3ncc(Cl)cn3)C2)cs1",
    "assayed_system": "CDK12 wt/CycK (Homo sapiens (Human), UniProt Q9NYV4)",
    "IC50": "100 to 1000 nM"
  },
  {
    "smiles_str": "O=C(c1cccc(N2C(=O)C=CC2=O)c1)N1CC[C@@H](Nc2ncc(Cl)cn2)C1",
    "assayed_system": "CDK12 wt/CycK (Homo sapiens (Human), UniProt Q9NYV4)",
    "IC50": "1000 to 10000 nM"
  },
  {
    "smiles_str": "C=CC(=O)Nc1ccc(C(=O)N2CC[C@@H](Nc3ncc(Cl)c(OCCO)n3)C2)cc1",
    "assayed_system": "CDK12 wt/CycK (Homo sapiens (Human), UniProt Q9NYV4)",
    "IC50": "< 100 nM"
  },
  {
    "smiles_str": "[2H]C([2H])([2H])Oc1nc(N[C@@H]2CCN(C(=O)c3cccc(N4C(=O)C=CC4=O)c3)C2)ncc1Cl",
    "assayed_system": "CDK12 wt/CycK (Homo sapiens (Human), UniProt Q9NYV4)",
    "IC50": "1000 to 10000 nM"
  }
]
